Test system: HEPG2
Assay: Euclidean distance of Cell Painting phenotypic profile (signed KS, 77 features) to DMSO centroid (dimensionless distance); 5 or 10 uM (library dependent); higher = stronger phenotypic change vs DMSO (phenoactivity)
Settings: 48 h
assay metric: Euclidean distance
Output spec: single numeric token, no unit.

See these solved cases before continuing.
Sample Cc1cccc(C)c1N(CC(=O)Nc1ccc(-c2ncon2)cc1)C(=O)C1CCS(=O)(=O)CC1 — what was its Euclidean distance?
0.5

Sample CCCC(=O)Nc1cccc(NC(=O)c2ccccc2Br)c1 — what was its Euclidean distance?
1.27

More entries:
Sample O=C(O)C1(C(=O)O)CCC1.[NH2-].[NH2-].[Pt+2] — what was its Euclidean distance?
2.58

###

Test system: 786-O
Experiment: Euclidean distance of Cell Painting phenotypic profile (signed KS, 77 features) to DMSO centroid (dimensionless distance); 5 or 10 uM (library dependent); higher = stronger phenotypic change vs DMSO (phenoactivity)
Conditions: 48 h
assay metric: Euclidean distance
Output spec: single numeric token, no unit.

Test system 786-O; read-out Euclidean distance; what value for CC1(C)S[C@@H]2[C@H](NC(=O)Cc3ccccc3)C(=O)N2[C@H]1C(=O)O.CCN(CC)CCOC(=O)c1ccc(N)cc1 ?
0.821

Test system 786-O; read-out Euclidean distance; what value for CCNC(=O)CC[C@H](N)C(=O)O ?
1.64

Test system 786-O; read-out Euclidean distance; what value for COc1cc(F)c(C(C)C)cc1-c1ccc(C(F)(F)F)cc1CN1C(=O)O[C@H](c2cc(C(F)(F)F)cc(C(F)(F)F)c2)[C@@H]1C ?
0.703

Test system 786-O; read-out Euclidean distance; what value for COc1ccnc(C[S+]([O-])c2nc3cc(OC(F)F)ccc3[nH]2)c1OC (centres undefined) [Pantoprazole sodium] ?
0.766

Test system 786-O; read-out Euclidean distance; what value for CCCCOC(=O)c1ccccc1Nc1cccc(C(F)(F)F)c1 [Ufenamate] ?
1.52

Test system 786-O; read-out Euclidean distance; what value for O=C(Nc1ncc(SCCN2CCCC2)s1)[C@]1(c2ccc(S(=O)(=O)C3CC3)cc2)C[C@H]1C1CCCCC1 ?
5.07

Test system 786-O; read-out Euclidean distance; what value for CC1(C)CCC(c2ccc(Cl)cc2)=C(CN2CCN(c3ccc(C(=O)NS(=O)(=O)c4ccc(N[C@H](CCN5CCOCC5)CSc5ccccc5)c(S(=O)(=O)C(F)(F)F)c4)cc3)CC2)C1 ?
1.75

Test system 786-O; read-out Euclidean distance; what value for CCOC(N)=O ?
1.2

Test system 786-O; read-out Euclidean distance; what value for CC1(C)CCC(C)(C)c2cc(NC(=O)c3ccc(C(=O)O)cc3)ccc21 ?
1.13

Test system 786-O; read-out Euclidean distance; what value for CCc1c2c(nc3ccc(O)cc13)-c1cc3c(c(=O)n1C2)COC(=O)[C@]3(O)CC ?
4.4

More entries:
Test system 786-O; read-out Euclidean distance; what value for CN(C(=O)CN(CCO)CC(=O)N(C)C(C)(C)Cc1ccccc1)C(C)(C)Cc1ccccc1 ?
1.36

Test system 786-O; read-out Euclidean distance; what value for CC[C@H]1OC(=O)[C@@](C)(F)C(=O)[C@H](C)[C@@H](O[C@@H]2O[C@H](C)C[C@H](N(C)C)[C@H]2O)[C@](C)(OC)C[C@@H](C)C(=O)[C@H](C)[C@H]2N(CCCCn3cc(-c4cccc(N)c4)nn3)C(=O)O[C@]12C ?
1.63

Test system 786-O; read-out Euclidean distance; what value for O=c1c(-c2ccc(O)cc2)coc2cc(O)ccc12 ?
0.746

Test system 786-O; read-out Euclidean distance; what value for C[C@@H]1O[C@@H](OC[C@H]2O[C@@H](Oc3c(-c4ccc(O)c(O)c4)oc4cc(O)cc(O)c4c3=O)[C@H](O)[C@@H](O)[C@@H]2O)[C@H](O)[C@H](O)[C@H]1O ?
1.11
